Test protocol: clinical
Details: both, human, plasma, po, 1000 mg

>  <Structure string>
CCCCCc1ccc(/C(C)=C/C(=O)N[C@@H](Cc2c[nH]c3ccccc23)C(=O)N[C@H](CC(N)=O)C(=O)N[C@@H](CC(=O)O)C(=O)N[C@@H]2C(=O)NCC(=O)N[C@@H](CCCN)C(=O)N[C@@H](CC(=O)O)C(=O)N[C@H](C)C(=O)N[C@@H](CC(=O)O)C(=O)NCC(=O)N[C@H](CO)C(=O)N[C@@H]([C@H](C)CC(=O)O)C(=O)N[C@@H](CC(=O)c3ccccc3N)C(=O)O[C@@H]2C)cc1

>  <Unit name>
ng·h/mL

>  <AUC(0-t)>
664

$$$$

---

Test protocol: clinical
Details: both, human, plasma, po, 2000 mg

>  <Structure string>
CCCCCc1ccc(/C(C)=C/C(=O)N[C@@H](Cc2c[nH]c3ccccc23)C(=O)N[C@H](CC(N)=O)C(=O)N[C@@H](CC(=O)O)C(=O)N[C@@H]2C(=O)NCC(=O)N[C@@H](CCCN)C(=O)N[C@@H](CC(=O)O)C(=O)N[C@H](C)C(=O)N[C@@H](CC(=O)O)C(=O)NCC(=O)N[C@H](CO)C(=O)N[C@@H]([C@H](C)CC(=O)O)C(=O)N[C@@H](CC(=O)c3ccccc3N)C(=O)O[C@@H]2C)cc1

>  <Unit name>
h

>  <Tmax>
8

$$$$

---

Test protocol: clinical
Details: both, human, plasma, po, 2000 mg

>  <Structure string>
CCCCCc1ccc(/C(C)=C/C(=O)N[C@@H](Cc2c[nH]c3ccccc23)C(=O)N[C@H](CC(N)=O)C(=O)N[C@@H](CC(=O)O)C(=O)N[C@@H]2C(=O)NCC(=O)N[C@@H](CCCN)C(=O)N[C@@H](CC(=O)O)C(=O)N[C@H](C)C(=O)N[C@@H](CC(=O)O)C(=O)NCC(=O)N[C@H](CO)C(=O)N[C@@H]([C@H](C)CC(=O)O)C(=O)N[C@@H](CC(=O)c3ccccc3N)C(=O)O[C@@H]2C)cc1

>  <AUC(0-t)>
1860 ng·h/mL

$$$$

---

Test protocol: clinical
Details: both, human, plasma, po, 1000 mg, Tmax, MAD, 1000 mg BID oral, day 14 morning dose, LC/MS/MS, LLOQ 1 ng/mL, median (range)

>  <Compound>
CCCCCc1ccc(/C(C)=C/C(=O)N[C@@H](Cc2c[nH]c3ccccc23)C(=O)N[C@H](CC(N)=O)C(=O)N[C@@H](CC(=O)O)C(=O)N[C@@H]2C(=O)NCC(=O)N[C@@H](CCCN)C(=O)N[C@@H](CC(=O)O)C(=O)N[C@H](C)C(=O)N[C@@H](CC(=O)O)C(=O)NCC(=O)N[C@H](CO)C(=O)N[C@@H]([C@H](C)CC(=O)O)C(=O)N[C@@H](CC(=O)c3ccccc3N)C(=O)O[C@@H]2C)cc1 [surotomycin]

>  <Unit name>
h

>  <Tmax>
1.8

$$$$

---

Test protocol: clinical
Details: both, human, plasma, po, 1000 mg

>  <Compound>
CCCCCc1ccc(/C(C)=C/C(=O)N[C@@H](Cc2c[nH]c3ccccc23)C(=O)N[C@H](CC(N)=O)C(=O)N[C@@H](CC(=O)O)C(=O)N[C@@H]2C(=O)NCC(=O)N[C@@H](CCCN)C(=O)N[C@@H](CC(=O)O)C(=O)N[C@H](C)C(=O)N[C@@H](CC(=O)O)C(=O)NCC(=O)N[C@H](CO)C(=O)N[C@@H]([C@H](C)CC(=O)O)C(=O)N[C@@H](CC(=O)c3ccccc3N)C(=O)O[C@@H]2C)cc1 [surotomycin]

>  <half-life>
21.1 h

$$$$

---

Test protocol: clinical
Details: both, human, plasma, po, 1000 mg, Cmax, MAD, 1000 mg BID oral, day 1, LC/MS/MS, median (range), cohort n = 8

>  <Structure string>
CCCCCc1ccc(/C(C)=C/C(=O)N[C@@H](Cc2c[nH]c3ccccc23)C(=O)N[C@H](CC(N)=O)C(=O)N[C@@H](CC(=O)O)C(=O)N[C@@H]2C(=O)NCC(=O)N[C@@H](CCCN)C(=O)N[C@@H](CC(=O)O)C(=O)N[C@H](C)C(=O)N[C@@H](CC(=O)O)C(=O)NCC(=O)N[C@H](CO)C(=O)N[C@@H]([C@H](C)CC(=O)O)C(=O)N[C@@H](CC(=O)c3ccccc3N)C(=O)O[C@@H]2C)cc1

>  <Cmax>
21 ng/mL

$$$$

---

Test protocol: clinical
Details: both, human, plasma, po, 250 mg, Cmax, MAD, 250 mg BID oral, day 1, LC/MS/MS, median (range), cohort n = 8

>  <Molecule>
CCCCCc1ccc(/C(C)=C/C(=O)N[C@@H](Cc2c[nH]c3ccccc23)C(=O)N[C@H](CC(N)=O)C(=O)N[C@@H](CC(=O)O)C(=O)N[C@@H]2C(=O)NCC(=O)N[C@@H](CCCN)C(=O)N[C@@H](CC(=O)O)C(=O)N[C@H](C)C(=O)N[C@@H](CC(=O)O)C(=O)NCC(=O)N[C@H](CO)C(=O)N[C@@H]([C@H](C)CC(=O)O)C(=O)N[C@@H](CC(=O)c3ccccc3N)C(=O)O[C@@H]2C)cc1 [surotomycin]

>  <Cmax [ng/mL]>
6.8

$$$$

---

Test protocol: clinical
Details: both, human, plasma, po, 1000 mg

>  <Compound>
CCCCCc1ccc(/C(C)=C/C(=O)N[C@@H](Cc2c[nH]c3ccccc23)C(=O)N[C@H](CC(N)=O)C(=O)N[C@@H](CC(=O)O)C(=O)N[C@@H]2C(=O)NCC(=O)N[C@@H](CCCN)C(=O)N[C@@H](CC(=O)O)C(=O)N[C@H](C)C(=O)N[C@@H](CC(=O)O)C(=O)NCC(=O)N[C@H](CO)C(=O)N[C@@H]([C@H](C)CC(=O)O)C(=O)N[C@@H](CC(=O)c3ccccc3N)C(=O)O[C@@H]2C)cc1 [surotomycin]

>  <Unit name>
ng/mL

>  <Cmax>
21.5

$$$$

---

Test protocol: clinical
Details: both, human, plasma, po, 250 mg, AUC0–t, MAD, 250 mg BID oral, day 14, 0 to last measurable concentration, median (range)

>  <Molecule>
CCCCCc1ccc(/C(C)=C/C(=O)N[C@@H](Cc2c[nH]c3ccccc23)C(=O)N[C@H](CC(N)=O)C(=O)N[C@@H](CC(=O)O)C(=O)N[C@@H]2C(=O)NCC(=O)N[C@@H](CCCN)C(=O)N[C@@H](CC(=O)O)C(=O)N[C@H](C)C(=O)N[C@@H](CC(=O)O)C(=O)NCC(=O)N[C@H](CO)C(=O)N[C@@H]([C@H](C)CC(=O)O)C(=O)N[C@@H](CC(=O)c3ccccc3N)C(=O)O[C@@H]2C)cc1 [surotomycin]

>  <AUC(0-t) [ng·h/mL]>
274

$$$$

---

Test protocol: clinical
Details: both, human, plasma, po, 500 mg, AUC0–t, MAD, 500 mg BID oral, day 1, 0 to last measurable concentration, median (range), cohort n = 8

>  <Compound>
CCCCCc1ccc(/C(C)=C/C(=O)N[C@@H](Cc2c[nH]c3ccccc23)C(=O)N[C@H](CC(N)=O)C(=O)N[C@@H](CC(=O)O)C(=O)N[C@@H]2C(=O)NCC(=O)N[C@@H](CCCN)C(=O)N[C@@H](CC(=O)O)C(=O)N[C@H](C)C(=O)N[C@@H](CC(=O)O)C(=O)NCC(=O)N[C@H](CO)C(=O)N[C@@H]([C@H](C)CC(=O)O)C(=O)N[C@@H](CC(=O)c3ccccc3N)C(=O)O[C@@H]2C)cc1 [surotomycin]

>  <AUC(0-t)>
49.4 ng·h/mL

$$$$

---

Test protocol: clinical
Details: both, human, plasma, po, 1000 mg, AUC0–t, MAD, 1000 mg BID oral, day 14, 0 to last measurable concentration, median (range)

>  <Compound>
CCCCCc1ccc(/C(C)=C/C(=O)N[C@@H](Cc2c[nH]c3ccccc23)C(=O)N[C@H](CC(N)=O)C(=O)N[C@@H](CC(=O)O)C(=O)N[C@@H]2C(=O)NCC(=O)N[C@@H](CCCN)C(=O)N[C@@H](CC(=O)O)C(=O)N[C@H](C)C(=O)N[C@@H](CC(=O)O)C(=O)NCC(=O)N[C@H](CO)C(=O)N[C@@H]([C@H](C)CC(=O)O)C(=O)N[C@@H](CC(=O)c3ccccc3N)C(=O)O[C@@H]2C)cc1 [surotomycin]

>  <AUC(0-t)>
771 ng·h/mL

$$$$

Origin of the recorded values: paper PMC5368910
